# key: entry, value: growth inhibition
Assay overview: NCI Yeast Anticancer Drug Screen. Data for the cln2 rad14 strain (AID 165);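 further: 0% = growth equal to vehicle treated cultures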
Assay setup: S. cerevisiae cln2 rad14 strain, at 50.0 µM, hits give high values
Protocol: Growth inhibition of yeast strains with defined genetic alterations is measured as a screen for potential anti-cancer activity. Selected strains with alterations in DNA damage repair or cell cycle control were exposed to compounds and growth inhibition was measured relative to vehicle treated controls. The strain used in this assay is cln2 rad14
About 79,000 compounds went through this panel and 15% of them were active in at least one assay; those are over-represented in the sample as a whole.

- Compound: "O=C(O)CC1SC2(C(=O)N(Cc3ccccc3)c3ccccc32)N(c2ccccc2)C1=O (stereo not drawn)"
  Unit abbreviation: "%"
  growth inhibition: -8.55
- Compound: "C[n+]1c(-c2ccc(/C=N/NC(=O)C(=O)N/N=C/c3ccc(-c4cn5ccsc5[n+]4C)cc3)cc2)cn2ccsc21"
  Unit abbreviation: "%"
  growth inhibition: 76.6
- Compound: "O=[N+]([O-])c1ccccc1N=NNc1ccccc1[N+](=O)[O-]"
  Unit abbreviation: "%"
  growth inhibition: -26.6
